- Method Summary: kinetic solubility in phosphate-buffered saline, pH 7.4
- Type: physicochemical
- Run Parameters: pH 7.4, aqueous buffer, kinetic from dmso stock
Metric Name: solubility kinetic (µM)
Please state the figure in µM; there is no need to write the unit.

Reported solubility kinetic, compound CCOC(=O)c1ccc(N)cc1 : ____
385

---

- Tested on: human cancer cell line MCF-7
- Method Summary: resazurin reduction assay, growth inhibition of MCF-7
- Type: cell-based
- Run Parameters: MCF7, read-out: IC50, inhibition of the growth of MCF-7
Metric Name: IC50 (µM)
Reply with just the number (in µM).

Quick one: IC50 for CC(C)(C)c1ccc(CN2CCN(C(c3ccccc3)c3ccc(Cl)cc3)CC2)cc1 (stereo not shown) [Buclizine] ?
31.3
